Organism: Rattus norvegicus
Assay: Open TG-GATES - Regimen: Daily Repeat
Format: toxicity, organism-based, Sprague-Dawley
Design: regimen Daily Repeat, gender Male, age 6 weeks
Details: in vivo, po, 0 mg/kg, […], tissue Plasma, route gavage, dose level Control, time 28 day
measured.quantity: Na (meq/L)
Write it as a number; the unit meq/L goes unstated.

// known answers, use as guide
>  <compound>
CC(C)NNC(=O)c1ccncc1

>  <measured.quantity>
Na

>  <obs.value>
142

$$$$
>  <compound>
CN(C)CCC(c1ccc(Cl)cc1)c1ccccn1 (stereo not drawn)

>  <measured.quantity>
Na

>  <obs.value>
144.8

$$$$
>  <compound>
NC1=NC(=O)C(c2ccccc2)O1 (stereo not drawn)

>  <measured.quantity>
Na

>  <obs.value>
143

$$$$
>  <compound>
CN1C(=O)CCS(=O)(=O)C1c1ccc(Cl)cc1 (stereo not drawn)

>  <measured.quantity>
Na

>  <obs.value>
142.4

$$$$

State the recorded Na for this entry: Cc1nnc2n1-c1ccc(Cl)cc1C(c1ccccc1Cl)=NC2
144

Another compound to look at: Brc1ccccc1
142.2

Another compound to look at: CCOc1ccc(NC(C)=O)cc1
144.8

Another compound to look at: O=C(OC[C@H]1O[C@@H](OC(=O)c2cc(O)c(O)c(OC(=O)c3cc(O)c(O)c(O)c3)c2)[C@H](OC(=O)c2cc(O)c(O)c(OC(=O)c3cc(O)c(O)c(O)c3)c2)[C@@H](OC(=O)c2cc(O)c(O)c(OC(=O)c3cc(O)c(O)c(O)c3)c2)[C@@H]1OC(=O)c1cc(O)c(O)c(OC(=O)c2cc(O)c(O)c(O)c2)c1)c1cc(O)c(O)c(OC(=O)c2cc(O)c(O)c(O)c2)c1
139.6

Another compound to look at: CNC(=C[N+](=O)[O-])NCCSCc1ccc(CN(C)C)o1
140.8

Another compound to look at: COC(=O)C1=C(C)NC(C)=C(C(=O)OC)C1c1ccccc1[N+](=O)[O-]
143.8

Another compound to look at: CN/C(=N/CCSCc1nc[nH]c1C)NC#N
140.6

Another compound to look at: Nc1c2c(nc3ccccc13)CCCC2
141.6

Another compound to look at: CCCc1cc(=O)[nH]c(=S)[nH]1
139.8

Source of measurements: ChEMBL document CHEMBL3885861
